The reported numbers originate from patent US20090304692A1.

target: PI3K-γ (Homo sapiens, UniProt P48736); experiment: PI3K-gamma fluorescence polarization assay; conditions: read-out: IC50 PI3Kγ; listed as 733
Sequence (P48736 whole entry, species assumed): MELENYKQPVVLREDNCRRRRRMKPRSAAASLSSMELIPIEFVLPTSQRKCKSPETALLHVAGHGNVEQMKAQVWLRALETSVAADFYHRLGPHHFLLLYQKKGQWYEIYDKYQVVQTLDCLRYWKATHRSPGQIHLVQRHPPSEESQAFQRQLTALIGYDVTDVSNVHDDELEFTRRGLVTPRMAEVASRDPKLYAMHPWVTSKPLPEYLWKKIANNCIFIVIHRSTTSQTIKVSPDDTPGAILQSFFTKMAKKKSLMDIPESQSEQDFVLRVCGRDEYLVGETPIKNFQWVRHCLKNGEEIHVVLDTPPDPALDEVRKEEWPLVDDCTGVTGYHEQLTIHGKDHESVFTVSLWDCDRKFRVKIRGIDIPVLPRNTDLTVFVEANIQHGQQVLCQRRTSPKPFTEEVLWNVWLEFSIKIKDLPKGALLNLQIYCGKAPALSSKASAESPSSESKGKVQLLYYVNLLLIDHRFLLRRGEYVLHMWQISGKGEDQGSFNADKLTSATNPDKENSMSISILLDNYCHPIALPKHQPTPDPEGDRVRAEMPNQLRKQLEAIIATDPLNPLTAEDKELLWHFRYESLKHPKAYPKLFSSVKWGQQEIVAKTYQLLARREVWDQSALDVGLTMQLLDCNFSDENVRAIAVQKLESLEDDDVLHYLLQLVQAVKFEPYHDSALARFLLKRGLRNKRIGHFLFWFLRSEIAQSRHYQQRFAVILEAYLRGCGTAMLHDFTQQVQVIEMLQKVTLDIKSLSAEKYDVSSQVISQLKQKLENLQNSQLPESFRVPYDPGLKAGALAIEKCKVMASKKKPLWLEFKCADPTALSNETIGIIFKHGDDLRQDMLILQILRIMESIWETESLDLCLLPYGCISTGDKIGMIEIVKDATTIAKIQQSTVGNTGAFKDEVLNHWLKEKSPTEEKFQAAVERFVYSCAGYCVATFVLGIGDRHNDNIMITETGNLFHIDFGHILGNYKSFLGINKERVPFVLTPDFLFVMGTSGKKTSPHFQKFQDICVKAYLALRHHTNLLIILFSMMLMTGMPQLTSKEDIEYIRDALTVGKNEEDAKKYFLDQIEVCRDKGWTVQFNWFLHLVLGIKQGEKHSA
Measurement Kind: pIC50
Scale explanation: pIC50 corresponds to minus log10 of a concentration expressed in moles per litre.

The reported pIC50 value, PI3K-γ (Homo sapiens, UniProt P48736), for `O=C(Nc1ccncc1)Nc1ccc(-c2nc(CCCN3CCCC3)nc(N3CCOCC3)n2)cc1` reads 6.39

* * *

molecular target: UniProt:P48736; assay: PI3K-gamma fluorescence polarization assay; details: read-out: IC50 PI3Kγ
Label key: true means IC50 under 100 nM; false means IC50 of 100 nM or more.

O=C(Nc1ccc(CN2CCCC2)cc1)Nc1ccc(-c2nc(N3C4CCC3COC4)nc(N3C4CCC3COC4)n2)cc1 :: false
O=C(Nc1ccc(C(=O)NCCN2CCCC2)cc1)Nc1ccc(-c2nc(-c3ccccc3)nc(N3CCOCC3)n2)cc1 :: false
CCN1CCN(C(=O)c2ccc(NC(=O)Nc3ccc(-c4nc(-c5cccs5)nc(N5CCOCC5)n4)cc3)cc2)CC1 :: true
CN(C)CCNC(=O)c1ccc(NC(=O)Nc2ccc(-c3nc(N4CCCC4)nc(N4CCOCC4)n3)cc2)cc1 :: false
CCN1CCN(C(=O)c2ccc(NC(=O)Nc3ccc(-c4nc(N5CCCCC5)nc(N5CCOCC5)n4)cc3)cc2)CC1 :: true

Lab log: compare recorded IC50 with 100 nM; is it strictly lower for `O=C(Nc1ccc(-c2nc(NCCN3CCOCC3)nc(N3CC4CCC(C3)O4)n2)cc1)Nc1cccnc1` ?
false

Lab log: compare recorded IC50 with 100 nM; is it strictly lower for `CN1CCN(c2ccc(NC(=O)Nc3ccc(-c4nc(N5CC6CCC(C5)O6)nc(N5CC6CCC(C5)O6)n4)cc3)cc2)CC1` ?
false

Lab log: compare recorded IC50 with 100 nM; is it strictly lower for `CC(C)Oc1nc(-c2ccc(NC(=O)Nc3ccc(N4CCN(C)CC4)cc3)cc2)nc(N2CC3CCC(C2)O3)n1` ?
false

Lab log: compare recorded IC50 with 100 nM; is it strictly lower for `CN(C)CCN(C)C(=O)c1ccc(NC(=O)Nc2ccc(-c3nc(N4CCOCC4)nc(N4C5COCC4COC5)n3)cc2)cc1` ?
true

Lab log: compare recorded IC50 with 100 nM; is it strictly lower for `CC(C)Cc1nc(-c2ccc(NC(=O)Nc3ccc(C(=O)N4CCC(N(C)C)CC4)cc3)cc2)nc(N2CCOCC2)n1` ?
true

Lab log: compare recorded IC50 with 100 nM; is it strictly lower for `O=C(Nc1ccc(C(=O)N2CCSCC2)cc1)Nc1ccc(-c2nc(N3CCOCC3)nc(N3C4CCC3COC4)n2)cc1` ?
true

Lab log: compare recorded IC50 with 100 nM; is it strictly lower for `CC(C)Oc1nc(-c2ccc(NC(=O)Nc3ccncc3)cc2)nc(N2CCOCC2)n1` ?
true

Lab log: compare recorded IC50 with 100 nM; is it strictly lower for `C[C@@H]1COCCN1c1nc(-c2ccc(NC(=O)Nc3ccc(CN4CCCC4)cc3)cc2)nc(N2C[C@@H]3C[C@H]2CO3)n1` ?
false

Lab log: compare recorded IC50 with 100 nM; is it strictly lower for O=C(Nc1ccncc1)Nc1ccc(-c2nc(N3CCOCC3)nc(N3C4COCC3[C@H](OCc3ccccc3)C4)n2)cc1 (some centres unmarked) ?
true
